molecular target: T1, mouse PCSK9 (mouse, UniProt Q80W65 35-694, limits assumed); assay: SPR Biacore 3000, captured IgG, mPCSK9 injected, pH 7.4
T1 construct: also called mPCSK9; msPCK9
T1 sequence (Q80W65 35-694 limits assumed): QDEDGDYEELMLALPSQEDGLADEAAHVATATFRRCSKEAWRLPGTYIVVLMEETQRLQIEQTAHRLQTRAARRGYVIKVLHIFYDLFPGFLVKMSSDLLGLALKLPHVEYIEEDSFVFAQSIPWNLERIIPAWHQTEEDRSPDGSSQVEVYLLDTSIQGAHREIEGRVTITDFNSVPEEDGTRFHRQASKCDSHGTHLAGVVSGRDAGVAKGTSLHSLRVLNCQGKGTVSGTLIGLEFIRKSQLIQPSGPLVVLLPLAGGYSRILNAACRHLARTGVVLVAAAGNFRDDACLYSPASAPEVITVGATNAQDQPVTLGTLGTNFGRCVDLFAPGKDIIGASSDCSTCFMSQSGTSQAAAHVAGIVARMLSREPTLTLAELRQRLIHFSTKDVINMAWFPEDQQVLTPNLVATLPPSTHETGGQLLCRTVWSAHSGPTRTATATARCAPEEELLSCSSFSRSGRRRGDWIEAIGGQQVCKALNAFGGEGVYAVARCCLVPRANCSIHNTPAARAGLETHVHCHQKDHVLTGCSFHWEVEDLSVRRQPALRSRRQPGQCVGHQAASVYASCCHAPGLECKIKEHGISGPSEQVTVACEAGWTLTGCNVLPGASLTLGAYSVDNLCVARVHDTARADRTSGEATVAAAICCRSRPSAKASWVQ
measurement-kind: pKd
Numbers only, as −log10 of the molar value.

Ask: Please look up its pKd: 5L1724H23_6L3H3 (antibody, V domains shown, Only CDRs printed; Full-length IgG) VH: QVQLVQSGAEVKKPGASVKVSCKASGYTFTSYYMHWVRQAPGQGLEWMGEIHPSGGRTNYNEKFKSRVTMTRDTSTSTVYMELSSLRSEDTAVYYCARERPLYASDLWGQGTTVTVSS VL: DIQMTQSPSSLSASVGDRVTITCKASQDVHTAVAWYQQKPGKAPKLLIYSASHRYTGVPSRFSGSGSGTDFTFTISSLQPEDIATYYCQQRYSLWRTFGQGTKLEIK
Result: 7.89
